Biological target: HLA-DRB1*1501 (human)
Assay: competition binding
Settings: modification not given
pIC50: −log10 of the molar value.
measure name: pIC50

Recorded results for 3 binders are shown here.
[[record]]
binder = "GTLRGYYNQSEAGSH [p15*]"
measure_name = "pIC50"
numeric_value = 7.48

[[record]]
binder = "TCVEWLRRYLENGKE [p34*]"
measure_name = "pIC50"
numeric_value = 4.65

[[record]]
binder = "IPIVGIIAGLVLFGA [p53*]"
measure_name = "pIC50"
numeric_value = 6.55


(a) EQLRAYLEGTCVEWL [p32]
(b) VDLGTLRGYYNQSEA [p14*]
(c) VGYVDDTQFVRFDSD [p6]
## Task # sort list by recorded pIC50, greatest to least Record the ranking as a list of labels in the requested order.
## Result b, a, c
(b: 7.09, a: 6.57, c: 5.75)
